Origin of measurements: patent US20220363718A1

biological target: T1, Biotinylated human TSLP (human, biotinylated); assay: SPR, biotinylated hTSLP on streptavidin chip
T1 construct: also called hTSLP; thymic stromal lymphopoietin
T1 sequence (chain, as listed by the source limits assumed): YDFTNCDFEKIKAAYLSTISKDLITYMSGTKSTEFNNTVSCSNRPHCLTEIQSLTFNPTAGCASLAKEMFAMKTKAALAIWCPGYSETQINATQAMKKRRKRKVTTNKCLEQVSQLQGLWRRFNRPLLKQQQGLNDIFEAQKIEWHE
*1 amine or outer side, *2 acyl side, *3 side chain or, on linkers, in order; H or OH if unused. Bridges are numbered along the chain shown (N, C = ends). Where no end group is shown, it is not given here. [ ]: non-standard residue; d: D form. Phe(4-OMe) = 4-methoxy-phenylalanine (4-MeOPhe) = O-methyl-tyrosine, COc1ccc(C[C@H](N[*:1])C(=O)[*:2])cc1; TATA = O=C(CC[*:1])N1CN(C(=O)CC[*:2])CN(C(=O)CC[*:3])C1; Ala(cPent) = N[C@@H](CC1CCCC1)C(=O)O
Rule for this label: condition met means Kd is less than 300 nM; condition not met means Kd is at least 300 nM.

- binder: "RENCRWLDDCWQGFCA (linker 4-10-15 via TATA) [Example 117]"
  label value: "condition met"
- binder: "RDLCTDLDPWTCPDWWLCA (linker 4-12-18 via TATA) [Example 189]"
  label value: "condition not met"
- binder: "CQWLEDCWXGXC (N-term acetyl; CQWLEDCW[4-PipA]G[4-FPhe]C as printed; 3 Cys on TATA) [Example 70]"
  label value: "condition met"
- binder: "SDEQRTCQWLEDCWRGFCA (linker 7-13-18 via TATA) [Example 61]"
  label value: "condition met"
- binder: "Ac-ACQWLEDCWRGFCPLD (linker 2-8-13 via TATA; not fully specified (C-terminus)) [Example 53]"
  label value: "condition met"
- binder: "CQWLEDCWXGFC (not fully specified; CQWLEDCW[Dap]GFC as printed; 3 Cys on TATA) [Example 156]"
  label value: "condition not met"
- binder: "CAWLEDCWRGXC (not fully specified; N-term acetyl; C[dA]WLEDCWRG[4-FPhe]C as printed; 3 Cys on TATA) [Example 126]"
  label value: "condition not met"
- binder: "Ac-CQW[Ala(cPent)]EDCWRGFC (linker 1-7-12 via TATA) [Example 65]"
  label value: "condition met"
- binder: "ACQWLEDCWRGFCDDAHAP (linker 2-8-13 via TATA) [Example 55]"
  label value: "condition met"
- binder: "CHWLEDCWRGXC (N-term acetyl; CHWLEDCWRG[4-FPhe]C as printed; 3 Cys on TATA) [Example 19]"
  label value: "condition met"
- binder: "CAXLEDCWXGXC (N-term acetyl; CA[Nal1]LEDCW[Harg]G[4-FPhe]C as printed; 3 Cys on TATA) [Example 62]"
  label value: "condition met"
- binder: "CHWLENCWXGFC (not fully specified; N-term acetyl; CHWLENCW[Dap]GFC as printed; 3 Cys on TATA) [Example 159]"
  label value: "condition not met"
- binder: "ACEWLEDCWRGFCA (linker 2-8-13 via TATA; not fully specified (C-terminus)) [Example 101]"
  label value: "condition met"
- binder: "Ac-CQWLEDCWRG[Phe(4-OMe)]C (linker 1-7-12 via TATA) [Example 142]"
  label value: "condition not met"
- binder: "CQWLEDCWXGFC (N-term acetyl; CQWLEDCW[Can]GFC as printed; 3 Cys on TATA) [Example 131]"
  label value: "condition not met"
- binder: "ACDWQWSYDCWLPCA (linker 2-10-14 via TATA) [Example 196]"
  label value: "condition not met"
- binder: "ETNNLECQWLEDCWRGFCA (linker 7-13-18 via TATA) [Example 71]"
  label value: "condition met"
- binder: "CQWLXDCWRGXC (not fully specified; N-term acetyl; CQWL[3-ClPhe]DCWRG[4-FPhe]C as printed; 3 Cys on TATA) [Example 105]"
  label value: "condition met"
- binder: "ACTWLDDCWRGFCA (linker 2-8-13 via TATA) [Example 76]"
  label value: "condition met"
- binder: "CQWLEDCXRGXC (N-term acetyl; CQWLEDC[4-ClNal]RG[4-FPhe]C as printed; 3 Cys on TATA) [Example 60]"
  label value: "condition met"
- binder: "CQELDPWTCETWWLC (linker 1-9-15 via TATA) [Example 181]"
  label value: "condition not met"
- binder: "CQXLEDCWXGXC (N-term acetyl; CQ[ButG]LEDCW[ButG]G[4-FPhe]C as printed; 3 Cys on TATA) [Example 145]"
  label value: "condition not met"
- binder: "CQXLEDCXRGXC (not fully specified; N-term acetyl; CQ[5FTrp]LEDC[5FTrp]RG[4-FPhe]C as printed; 3 Cys on TATA) [Example 21]"
  label value: "condition met"
- binder: "CKELDPWTCETWWLC (linker 1-9-15 via TATA) [Example 179]"
  label value: "condition not met"
- binder: "CQWLEDCWRGFCDTSTHS (linker 1-7-12 via TATA; not fully specified (C-terminus)) [Example 128]"
  label value: "condition not met"
- binder: "CQWLEDCWRGXC (N-term acetyl; CQWLEDCWRG[3-BrPhe]C as printed; 3 Cys on TATA) [Example 143]"
  label value: "condition not met"
